B1: minF1; a variant is named by its letters at N, in order (parent)
chain: GAGACCGCAACTGAAAAGTTGTTNNNNAANNNNNGGNTNAATTTCTGCACGTAGAAGCAAAAGGC

Variants of: B1
assay_explanation: fraction ligated after 30 min (ligated reads / total reads); higher = more ligase activity
study_conditions: with F1*subA RNA substrate (template-directed ligation), 42 °C

>  <variant_key>
ATAGTGGATGT

>  <fraction ligated>
0.0055

$$$$
>  <variant_key>
ACAGAGGATGT

>  <fraction ligated>
0.00215

$$$$
>  <variant_key>
ATCAAGGATTG

>  <fraction ligated>
0.00347

$$$$
>  <variant_key>
ATCAATGATGT A28G

>  <fraction ligated>
0.00479

$$$$
>  <variant_key>
ATCAATGGAGT G35T A40G

>  <fraction ligated>
0.0379

$$$$
>  <variant_key>
TCAGATGGAGT

>  <fraction ligated>
0.00402

$$$$
>  <variant_key>
ACAGATGAGTG

>  <fraction ligated>
0.00298

$$$$
>  <variant_key>
ATCGTGATGTG

>  <fraction ligated>
0.00711

$$$$
>  <variant_key>
ACAGATGGATG

>  <fraction ligated>
0.000541

$$$$
>  <variant_key>
ACAGATGGTTG

>  <fraction ligated>
0.00164

$$$$
>  <variant_key>
CAGATGGAGTG

>  <fraction ligated>
0.00344

$$$$
>  <variant_key>
ATCAATGGAGT G35T

>  <fraction ligated>
0.0137

$$$$
>  <variant_key>
TCAGATGGGTG T23A

>  <fraction ligated>
0.00356

$$$$
>  <variant_key>
ACAATGGATGT

>  <fraction ligated>
0.00325

$$$$
>  <variant_key>
TAGATGGTGTG

>  <fraction ligated>
0.0039

$$$$
>  <variant_key>
TCAGATGGAGT A40G

>  <fraction ligated>
0.00532

$$$$
>  <variant_key>
CAGATGGATGT A40G

>  <fraction ligated>
0.0159

$$$$
>  <variant_key>
AAGATGGATTG

>  <fraction ligated>
0.00494

$$$$
>  <variant_key>
ATCGTGGATTG

>  <fraction ligated>
0.0062

$$$$
>  <variant_key>
ATCAAATGGGT A28G A40G

>  <fraction ligated>
0.00524

$$$$
>  <variant_key>
ATCAATGGGTG A28G

>  <fraction ligated>
0.00605

$$$$
>  <variant_key>
TCGATGATGTG T23A

>  <fraction ligated>
0.00559

$$$$
>  <variant_key>
ATCAGGATGTG

>  <fraction ligated>
0.00723

$$$$
>  <variant_key>
TAGATGGATGT

>  <fraction ligated>
0.00222

$$$$
>  <variant_key>
ATAGAGGATGT A40G

>  <fraction ligated>
0.00594

$$$$
>  <variant_key>
ATCAAATGAGT A28G G35T T38G A40T

>  <fraction ligated>
0.00229

$$$$
>  <variant_key>
ACAGGGATGTG A29T

>  <fraction ligated>
0.00506

$$$$
>  <variant_key>
ACAGAGGTGTG

>  <fraction ligated>
0.00336

$$$$
>  <variant_key>
ATCAATGGTGT A40G

>  <fraction ligated>
0.00841

$$$$
>  <variant_key>
ACAGATGATTG

>  <fraction ligated>
0.00209

$$$$
>  <variant_key>
ATCAATGGTGT

>  <fraction ligated>
0.00377

$$$$
>  <variant_key>
ACAGATGGAGT

>  <fraction ligated>
0.00252

$$$$
>  <variant_key>
TCAGATGGTGT T23A

>  <fraction ligated>
0.00338

$$$$
>  <variant_key>
ATCAAAGGGTG A28G

>  <fraction ligated>
0.0042

$$$$
>  <variant_key>
CAGATGGATGT T23A

>  <fraction ligated>
0.00559

$$$$
>  <variant_key>
ATCGAGATGTG

>  <fraction ligated>
0.00673

$$$$
>  <variant_key>
ATCAAATGGGT A28G G35A A40G

>  <fraction ligated>
0.00585

$$$$
>  <variant_key>
TAGAGGATGTG

>  <fraction ligated>
0.00132

$$$$
>  <variant_key>
ATCAAAGGAGT A28G G35T T38G A40T

>  <fraction ligated>
0.00242

$$$$
>  <variant_key>
TCAGTGGTGTG

>  <fraction ligated>
0.00248

$$$$
>  <variant_key>
ATAATGGATTG

>  <fraction ligated>
0.00677

$$$$
>  <variant_key>
ATCAGGATGTG A28G A29T

>  <fraction ligated>
0.00511

$$$$
>  <variant_key>
TCAGAGGAGTG

>  <fraction ligated>
0.00402

$$$$
>  <variant_key>
ACAGATGGAGT G35T A40G

>  <fraction ligated>
0.0182

$$$$
>  <variant_key>
TCAGTGGAGTG T23A

>  <fraction ligated>
0.00419

$$$$
>  <variant_key>
ATCAATGGAGT G35T T38G A40T A41G

>  <fraction ligated>
0.00079

$$$$

Reference source: the supplement of paper PMC6755084
